# Tested on: Capan-2
# protocol.details: OncoPanel cytotoxicity assay
# Assay type: cell-based
# condition.details: Homo sapiens, 72 hour incubation
pIC50: −log10 of the molar value.
In this section, each of the compounds is paired with its reported pIC50.

[[record]]
compound = "CC1(C)CCC2(CC1)N[C@@H](C(=O)N[C@@H]1CC[C@@H](C(N)=O)OC1)[C@H](c1ccnc(Cl)c1F)[C@]21C(=O)Nc2cc(Cl)ccc21 [Compound B]"
measured_endpoint = "pIC50"
result = "< 5.00"


# context switch: different compound, same pIC50
Item: CC[C@@H]1CNC2(CC2)CN1C(=O)[C@@H]1C[C@@H](F)CN1C(=O)C1=C(C(C)C)N2C(=N[C@@](C)(c3ccc(Cl)nc3)[C@H]2c2ccc(Cl)c(F)c2)S1 [Compound A] | pIC50: < 4.40

====

In this section, each of the compounds is paired with its reported pIC50.
# System: SW684
# protocol.details: OncoPanel cytotoxicity assay
# Assay type: cell-based
# condition.details: Homo sapiens, 72 hour incubation
pIC50: −log10 of the molar value.

[[record]]
structure_smiles_string = "CC1(C)CCC2(CC1)N[C@@H](C(=O)N[C@@H]1CC[C@@H](C(N)=O)OC1)[C@H](c1ccnc(Cl)c1F)[C@]21C(=O)Nc2cc(Cl)ccc21"
result = "< 5.00"


# context switch: different compound, same pIC50
So the reported pIC50 for CC[C@@H]1CNC2(CC2)CN1C(=O)[C@@H]1C[C@@H](F)CN1C(=O)C1=C(C(C)C)N2C(=N[C@@](C)(c3ccc(Cl)nc3)[C@H]2c2ccc(Cl)c(F)c2)S1 , on SW684, turned out to be < 4.40

====

# System: OE33
# protocol.details: OncoPanel cytotoxicity assay
# Format: cell-based
# condition.details: Homo sapiens, 72 hour incubation
measured.endpoint: IC50 (µM)
Enter your answer as a number in µM; do not include the unit.

Item: CC1(C)CCC2(CC1)N[C@@H](C(=O)N[C@@H]1CC[C@@H](C(N)=O)OC1)[C@H](c1ccnc(Cl)c1F)[C@]21C(=O)Nc2cc(Cl)ccc21 | IC50: 7.58

====

# System: MHH-PREB-1
# protocol.details: OncoPanel cytotoxicity assay
# Format: cell-based
# condition.details: Homo sapiens, 72 hour incubation
measured.endpoint: IC50 (µM)
Enter your answer as a number in µM; do not include the unit.

Item: CC1(C)CCC2(CC1)N[C@@H](C(=O)N[C@@H]1CC[C@@H](C(N)=O)OC1)[C@H](c1ccnc(Cl)c1F)[C@]21C(=O)Nc2cc(Cl)ccc21 [Compound B] | IC50: 8.3

====

In this section, each of the compounds is paired with its reported IC50.
# System: MX1
# protocol.details: OncoPanel cytotoxicity assay
# Type: cell-based
# condition.details: Homo sapiens, 72 hour incubation
Enter your answer as a number in µM; do not include the unit.

[[record]]
compound = "CC[C@@H]1CNC2(CC2)CN1C(=O)[C@@H]1C[C@@H](F)CN1C(=O)C1=C(C(C)C)N2C(=N[C@@](C)(c3ccc(Cl)nc3)[C@H]2c2ccc(Cl)c(F)c2)S1 [Compound A]"
quantitative_result = 39


# context switch: different compound, same IC50
Item: CC1(C)CCC2(CC1)N[C@@H](C(=O)N[C@@H]1CC[C@@H](C(N)=O)OC1)[C@H](c1ccnc(Cl)c1F)[C@]21C(=O)Nc2cc(Cl)ccc21 [Compound B] | IC50: 9.16

====

# System: MG-63
# protocol.details: OncoPanel cytotoxicity assay
# Format: cell-based
# condition.details: Homo sapiens, 72 hour incubation
In this section, each of the molecules is paired with its reported IC50.

[[record]]
molecule = "CC1(C)CCC2(CC1)N[C@@H](C(=O)N[C@@H]1CC[C@@H](C(N)=O)OC1)[C@H](c1ccnc(Cl)c1F)[C@]21C(=O)Nc2cc(Cl)ccc21 [Compound B]"
test_system = "MG-63"
measured_endpoint = "IC50"
result = "> 10 µM"


# context switch: different molecule, same IC50
Item: CC[C@@H]1CNC2(CC2)CN1C(=O)[C@@H]1C[C@@H](F)CN1C(=O)C1=C(C(C)C)N2C(=N[C@@](C)(c3ccc(Cl)nc3)[C@H]2c2ccc(Cl)c(F)c2)S1 [Compound A] | IC50: > 40 µM

====

In this section, each of the compounds is paired with its reported IC50.
# Test system: Capan-1
# protocol.details: OncoPanel cytotoxicity assay
# Format: cell-based
# condition.details: Homo sapiens, 72 hour incubation

[[record]]
structure_smiles_string = "CC[C@@H]1CNC2(CC2)CN1C(=O)[C@@H]1C[C@@H](F)CN1C(=O)C1=C(C(C)C)N2C(=N[C@@](C)(c3ccc(Cl)nc3)[C@H]2c2ccc(Cl)c(F)c2)S1"
result = "> 40 µM"


Item: CC1(C)CCC2(CC1)N[C@@H](C(=O)N[C@@H]1CC[C@@H](C(N)=O)OC1)[C@H](c1ccnc(Cl)c1F)[C@]21C(=O)Nc2cc(Cl)ccc21 | IC50: > 10 µM

====

# Test system: J-RT3-T3-5
# protocol.details: OncoPanel cytotoxicity assay
# Assay type: cell-based
# condition.details: Homo sapiens, 72 hour incubation
pIC50: −log10 of the molar value.
In this section, each of the compounds is paired with its reported pIC50.

[[record]]
structure_smiles_string = "CC1(C)CCC2(CC1)N[C@@H](C(=O)N[C@@H]1CC[C@@H](C(N)=O)OC1)[C@H](c1ccnc(Cl)c1F)[C@]21C(=O)Nc2cc(Cl)ccc21"
test_system = "J-RT3-T3-5"
result = "< 5.00"


# context switch: different compound, same pIC50
Item: CC[C@@H]1CNC2(CC2)CN1C(=O)[C@@H]1C[C@@H](F)CN1C(=O)C1=C(C(C)C)N2C(=N[C@@](C)(c3ccc(Cl)nc3)[C@H]2c2ccc(Cl)c(F)c2)S1 | pIC50: < 4.40

====

# Test system: SW948
# protocol.details: OncoPanel cytotoxicity assay
# Format: cell-based
# condition.details: Homo sapiens, 72 hour incubation
pIC50: −log10 of the molar value.
In this section, each of the molecules is paired with its reported pIC50.

[[record]]
structure_smiles_string = "CC1(C)CCC2(CC1)N[C@@H](C(=O)N[C@@H]1CC[C@@H](C(N)=O)OC1)[C@H](c1ccnc(Cl)c1F)[C@]21C(=O)Nc2cc(Cl)ccc21"
measured_endpoint = "pIC50"
result = "< 5.00"


# context switch: different molecule, same pIC50
So the reported pIC50 for CC[C@@H]1CNC2(CC2)CN1C(=O)[C@@H]1C[C@@H](F)CN1C(=O)C1=C(C(C)C)N2C(=N[C@@](C)(c3ccc(Cl)nc3)[C@H]2c2ccc(Cl)c(F)c2)S1 , on SW948, turned out to be < 4.40

====

In this section, each of the compounds is paired with its reported IC50.
# Tested on: L-428
# protocol.details: OncoPanel cytotoxicity assay
# Format: cell-based
# condition.details: Homo sapiens, 72 hour incubation

[[record]]
compound = "CC1(C)CCC2(CC1)N[C@@H](C(=O)N[C@@H]1CC[C@@H](C(N)=O)OC1)[C@H](c1ccnc(Cl)c1F)[C@]21C(=O)Nc2cc(Cl)ccc21 [Compound B]"
test_system = "L-428"
result = "> 10 µM"


# context switch: different compound, same IC50
Item: CC[C@@H]1CNC2(CC2)CN1C(=O)[C@@H]1C[C@@H](F)CN1C(=O)C1=C(C(C)C)N2C(=N[C@@](C)(c3ccc(Cl)nc3)[C@H]2c2ccc(Cl)c(F)c2)S1 [Compound A] | IC50: > 40 µM

====

In this section, each of the compounds is paired with its reported pIC50.
# Tested on: DK-MG
# protocol.details: OncoPanel cytotoxicity assay
# Type: cell-based
# condition.details: Homo sapiens, 72 hour incubation
To interpret pIC50, take it as minus log10 of a concentration measured in moles per litre.

[[record]]
structure_smiles_string = "CC1(C)CCC2(CC1)N[C@@H](C(=O)N[C@@H]1CC[C@@H](C(N)=O)OC1)[C@H](c1ccnc(Cl)c1F)[C@]21C(=O)Nc2cc(Cl)ccc21"
test_system = "DK-MG"
measured_endpoint = "pIC50"
quantitative_result = 7.26


# context switch: different compound, same pIC50
Item: CC[C@@H]1CNC2(CC2)CN1C(=O)[C@@H]1C[C@@H](F)CN1C(=O)C1=C(C(C)C)N2C(=N[C@@](C)(c3ccc(Cl)nc3)[C@H]2c2ccc(Cl)c(F)c2)S1 | pIC50: 6.19

====

# System: SJRH30
# protocol.details: OncoPanel cytotoxicity assay
# Format: cell-based
# condition.details: Homo sapiens, 72 hour incubation
# Protocol: Cells were grown in RPMI 1640, 10% FBS, 2 mM L-alanyl-L-Glutamine, 1 mM Na Pyruvate, or a special medium in a humidified atmosphere of 5% CO2 at 37° C. Cells were seeded into 384-well plates and incubated in a humidified atmosphere of 5% CO2 at 37° C. Test compounds were added 24 hours post cell seeding. At the same time, a time zero, untreated cell plate was generated as a control. […] Cell proliferation was measured by the signal intensity of the incorporated nuclear dye. […]
measured.endpoint: IC50

[[record]]
structure_smiles_string = "CC[C@@H]1CNC2(CC2)CN1C(=O)[C@@H]1C[C@@H](F)CN1C(=O)C1=C(C(C)C)N2C(=N[C@@](C)(c3ccc(Cl)nc3)[C@H]2c2ccc(Cl)c(F)c2)S1"
result = "> 40 µM"


Item: CC1(C)CCC2(CC1)N[C@@H](C(=O)N[C@@H]1CC[C@@H](C(N)=O)OC1)[C@H](c1ccnc(Cl)c1F)[C@]21C(=O)Nc2cc(Cl)ccc21 | IC50: 7.24 µM
